Ref: patent US20060079453A1

- testedSystem: HLA-A*1101 (Homo sapiens, UniProt P04439, A114D/D185E/E176A/F33Y/L180Q/S129P/T187R)
- testProtocol: biochemical
- Assay type: binding
No end group written: not given here.
Can you tell me log10(IC50) for the items I'm about to list?
Field: value | Transform: log10 | Quantity: IC50 | Unit: nM

Form: item "EVYNFACTELK" ; test system HLA-A*1101 (Homo sapiens, UniProt P04439, A114D/D185E/E176A/F33Y/L180Q/S129P/T187R); log10(IC50): 2.07

Per the reported HLA-A*1101 (Homo sapiens, UniProt P04439, A114D/D185E/E176A/F33Y/L180Q/S129P/T187R) data, "KVSEFRWYRR" has log10(IC50) of 1.20

# value of log10(IC50), HLA-A*1101 (Homo sapiens, UniProt P04439, A114D/D185E/E176A/F33Y/L180Q/S129P/T187R), item "DTIPHAACHK" = 2.85

Dear reader, for each entry below, please note its log10(IC50).
1. VTVKVGGQLK
2. KAGPGGYPRK
3. LQMMNVNLQK

[1.73, 1.63, 0.86]
